# Target under test: uterine OT receptors (Rattus norvegicus, UniProt P70536)
# Construct: from tissue; host or cells: uterus of DES-treated rats, crude membranes
# Sequence (P70536 1-388): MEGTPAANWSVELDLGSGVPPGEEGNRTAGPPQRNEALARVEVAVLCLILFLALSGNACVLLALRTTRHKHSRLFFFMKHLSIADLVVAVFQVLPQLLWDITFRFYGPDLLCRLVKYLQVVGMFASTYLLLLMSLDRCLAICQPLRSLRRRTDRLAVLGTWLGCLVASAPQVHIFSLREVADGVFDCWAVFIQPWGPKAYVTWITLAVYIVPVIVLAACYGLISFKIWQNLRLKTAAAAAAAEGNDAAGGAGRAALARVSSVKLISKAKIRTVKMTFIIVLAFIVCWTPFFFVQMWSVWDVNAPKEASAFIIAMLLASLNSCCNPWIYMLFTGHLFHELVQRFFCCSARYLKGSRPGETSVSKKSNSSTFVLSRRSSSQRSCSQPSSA
# Run description: [^3 H]OT binding to uterine OT receptors, crude membrane preparation of uteri from DES-treated rats
# Test context: rat uterus membranes, 1 nM [^3 H]OT; read-out: Receptor Binding Results IC50 (nM) [^3 H]OT
Square brackets hold non-standard residues; d marks the D form. Peptide text beside a SMILES is read from it. * marks the point of attachment. dPip = O=C(O)[C@H]1CCCCN1; Orn = NCCC[C@H](N)C(=O)O; Cbz = O=C(OCc1ccccc1)*
Readout name: IC50

Molecule	IC50
CC[C@H](C)[C@@H]1NC(=O)[C@@H](Cc2ccccc2)NC(=O)[C@@H]2CCCN2C(=O)[C@@H](CCC(N)=O)NC(=O)[C@@H]2CCCN2C(=O)[C@H]2CCCN2C1=O [Example 68] (cyclo([dF]I[dP]P[dQ]P))	> 10000 nM

With those in mind, consider the next molecule.
Value wanted: IC50 (uterine OT receptors (Rattus norvegicus, UniProt P70536)) of entry CC[C@H](C)[C@@H]1NC(=O)[C@@H](Cc2c[nH]c3ccccc23)NC(=O)[C@@H]2CCCN2C(=O)[C@@H](Cc2c[nH]c3ccccc23)NC(=O)[C@H](CCCNC(=O)OCc2ccccc2)NC(=O)[C@H]2CCCCN2C1=O [Example 36] (cyclo(I[dPip][Orn](Cbz)[dW]P[dW]))
> 100 nM

###

Below is a list of entries, each paired with its recorded IC50 value.
# Target under test: AVP-V1 sites (Rattus norvegicus)
# Construct: crude membrane preparation of male rat liver (AVP-V1 sites); from tissue; host or cells: male rat liver, crude membranes
# Sequence (P30560 whole entry): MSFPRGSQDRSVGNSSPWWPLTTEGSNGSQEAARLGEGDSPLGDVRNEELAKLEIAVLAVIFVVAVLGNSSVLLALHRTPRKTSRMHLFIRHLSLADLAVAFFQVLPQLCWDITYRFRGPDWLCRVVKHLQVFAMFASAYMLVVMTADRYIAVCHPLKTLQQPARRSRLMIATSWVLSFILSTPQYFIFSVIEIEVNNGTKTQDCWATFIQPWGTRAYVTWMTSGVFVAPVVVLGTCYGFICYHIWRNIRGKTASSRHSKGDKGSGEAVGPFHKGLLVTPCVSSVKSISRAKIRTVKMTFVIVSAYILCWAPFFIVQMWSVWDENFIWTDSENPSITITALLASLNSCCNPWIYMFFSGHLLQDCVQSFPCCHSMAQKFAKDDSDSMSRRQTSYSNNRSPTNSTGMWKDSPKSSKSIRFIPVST
# Run description: [^3 H]AVP binding to crude membrane preparation of male rat liver (AVP-V1 sites)
# Test context: Receptor Binding Results IC50 (nM) [^3 H]-AVP-V1
Square brackets hold non-standard residues; d marks the D form. Peptide text beside a SMILES is read from it. * marks the point of attachment. Pip(4-aza) = O=C(O)[C@@H]1CNCCN1; dNMeF = CN[C@H](Cc1ccccc1)C(=O)O; dOrn = NCCC[C@@H](N)C(=O)O; Pip = O=C(O)[C@@H]1CCCCN1; dPip = O=C(O)[C@H]1CCCCN1; Boc = CC(C)(C)OC(=O)*; tBu = CC(C)(C)*

Compound	Result
CC[C@H](C)[C@@H]1NC(=O)[C@@H](Cc2c[nH]c3ccccc23)NC(=O)[C@@H]2CCCN2C(=O)[C@@H](Cc2ccccc2)N(C)C(=O)[C@@H]2CNCCN2C(=O)[C@H]2CCCCN2C1=O [Example 92] (cyclo(I[dPip][Pip(4-aza)][dNMeF]P[dW]))	> 10000 nM
CC[C@H](C)[C@@H]1NC(=O)[C@@H](Cc2ccc(OC(C)(C)C)cc2)NC(=O)[C@@H]2CCCN2C(=O)[C@@H](Cc2ccccc2)N(C)C(=O)[C@H](CCCCNC(=O)OC(C)(C)C)NC(=O)[C@H]2CCCCN2C1=O [Example 144] (cyclo(I[dPip]K(Boc)[dNMeF]P[dY](tBu)))	> 10000 nM

Given CC[C@H](C)[C@@H]1NC(=O)[C@@H](Cc2ccccc2)NC(=O)[C@@H]2CCCN2C(=O)[C@@H](Cc2ccccc2)N(C)C(=O)[C@H](CC(=O)O)NC(=O)[C@H]2CCCCN2C1=O [Example 116] (cyclo(D[dNMeF]P[dF]I[dPip])) , state its recorded IC50.
> 10000 nM

Entry CC[C@H](C)[C@@H]1NC(=O)[C@@H](Cc2ccccc2)NC(=O)[C@@H]2CCCN2C(=O)[C@@H](CCCN)NC(=O)[C@@H]2CCCCN2C(=O)[C@H]2CCCCN2C1=O [Example 39] (cyclo(I[dPip][Pip][dOrn]P[dF])) has what IC50?
> 1000 nM

###

# Target under test: AVP-V2 sites (Rattus norvegicus)
# Construct: male rat liver (AVP-V1 sites) or kidney medulla (AVP-V2 sites); from tissue; host or cells: male rat kidney medulla, crude membranes
# Sequence (Q00788 whole entry): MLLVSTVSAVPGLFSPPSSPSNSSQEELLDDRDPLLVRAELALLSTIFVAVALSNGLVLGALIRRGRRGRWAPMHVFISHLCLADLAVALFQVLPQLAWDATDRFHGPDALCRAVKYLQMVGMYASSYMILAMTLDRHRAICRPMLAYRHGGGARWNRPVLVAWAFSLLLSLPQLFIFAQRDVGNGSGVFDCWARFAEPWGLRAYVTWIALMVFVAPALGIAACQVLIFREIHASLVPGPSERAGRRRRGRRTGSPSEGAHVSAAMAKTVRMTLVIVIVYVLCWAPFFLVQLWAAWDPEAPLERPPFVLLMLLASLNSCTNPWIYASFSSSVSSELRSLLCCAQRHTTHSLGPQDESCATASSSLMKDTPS
# Run description: [^3 H]AVP binding to crude membrane preparation of male rat kidney medulla (AVP-V2 sites)
# Test context: rat kidney medulla membranes, 2 nM [^3 H]AVP; read-out: Receptor Binding Results IC50 (nM) [^3 H]-AVP-V2
Square brackets hold non-standard residues; d marks the D form. Peptide text beside a SMILES is read from it. * marks the point of attachment. dNMeF = CN[C@H](Cc1ccccc1)C(=O)O; dPip(4-aza) = O=C(O)[C@H]1CNCCN1; Pip = O=C(O)[C@@H]1CCCCN1; dPip = O=C(O)[C@H]1CCCCN1; Boc = CC(C)(C)OC(=O)*; Bn = c1ccc(C*)cc1
Readout name: IC50

Consider the following illustrative entries.
Compound	Result
CC[C@H](C)[C@@H]1NC(=O)[C@@H](Cc2ccccc2)NC(=O)[C@@H]2CCCN2C(=O)[C@@H](Cc2ccccc2)NC(=O)[C@@H]2CCCCN2C(=O)[C@H]2CNCCN2C1=O [Example 84] (cyclo(I[dPip(4-aza)][Pip][dF]P[dF]))	> 10000 nM
CC[C@H](C)[C@@H]1NC(=O)[C@@H](Cc2ccc(OCc3ccccc3)cc2)NC(=O)[C@@H]2CCCN2C(=O)[C@@H](Cc2ccccc2)N(C)C(=O)[C@H](CCCCNC(=O)OC(C)(C)C)NC(=O)[C@H]2CCCCN2C1=O [Example 142] (cyclo(I[dPip]K(Boc)[dNMeF]P[dY](Bn)))	> 10000 nM
CC[C@H](C)[C@@H]1NC(=O)[C@@H](Cc2ccccc2)NC(=O)[C@@H]2CCCN2C(=O)[C@@H](Cc2cnc[nH]2)NC(=O)[C@@H]2CCCCN2C(=O)[C@H]2CCCCN2C1=O [Example 3] (cyclo(I[dPip][Pip][dH]P[dF]))	19000 nM

Need IC50 of CC[C@H](C)[C@@H]1NC(=O)[C@@H](Cc2ccc(O)cc2)NC(=O)[C@@H]2CCCN2C(=O)[C@@H](Cc2ccccc2)N(C)C(=O)[C@H](CCCCNC(=O)OC(C)(C)C)NC(=O)[C@H]2CCCCN2C1=O [Example 148] (cyclo(I[dPip]K(Boc)[dNMeF]P[dY])) , thanks.
> 10000 nM

###

# Target under test: uterine OT receptors (Rattus norvegicus, UniProt P70536)
# Construct: from tissue; host or cells: uterus of DES-treated rats, crude membranes
# Run description: [^3 H]OT binding to uterine OT receptors, crude membrane preparation of uteri from DES-treated rats
# Test context: 1 h; @ 100 (nM); read-out: [^3 H]OT: percent inhibition of radioligand at the given concentration
Numbered stars: 1 amine (or outer) side, 2 acyl side, 3 side chain; on linkers, the order of the positions; unused ones are H or OH. Square brackets hold non-standard residues; d marks the D form. Peptide text beside a SMILES is read from it. * marks the point of attachment. X5 = CC(C)(C)OC(=O)CN1CCN([*:1])[C@H](C(=O)[*:2])C1; dNMeY = CN[C@H](Cc1ccc(O)cc1)C(=O)O; dNMeF = CN[C@H](Cc1ccccc1)C(=O)O; Pip = O=C(O)[C@@H]1CCCCN1; dPip = O=C(O)[C@H]1CCCCN1; Orn = NCCC[C@H](N)C(=O)O; OtBu = CC(C)(C)O*
Readout name: inhibition at 0.1 µM (%)
I only need the number, in %, no unit after it.

Molecule	inhibition at 0.1 µM, %
CC[C@H](C)[C@@H]1NC(=O)[C@@H](Cc2ccccc2)NC(=O)[C@@H]2CCCN2C(=O)[C@@H](Cc2ccc(O)cc2)N(C)C(=O)[C@@H]2CCCCN2C(=O)[C@H]2CCCCN2C1=O [Example 46] (cyclo(I[dPip][Pip][dNMeY]P[dF]))	60
CC[C@H](C)[C@@H]1NC(=O)[C@@H](Cc2c[nH]c3ccccc23)NC(=O)[C@@H]2CCCN2C(=O)[C@@H](Cc2c[nH]c3ccccc23)NC(=O)[C@@H]2CN(CC(=O)OC(C)(C)C)CCN2C(=O)[C@H]2CCCCN2C1=O [Example 162] (cyclo([dW]I[dPip][X5][dW]P))	54
CC[C@H](C)[C@@H]1NC(=O)[C@@H](Cc2c[nH]c3ccccc23)NC(=O)[C@@H]2CCCN2C(=O)[C@@H](CC(=O)OC(C)(C)C)NC(=O)[C@@H]2CCCCN2C(=O)[C@H]2CCCCN2C1=O [Example 172] (cyclo(I[dPip][Pip][dD](OtBu)P[dW]))	20

Here's the next entry for you.
What value of inhibition at 0.1 µM has been reported for the following molecule? CC[C@H](C)[C@@H]1NC(=O)[C@@H](Cc2c[nH]c3ccccc23)NC(=O)[C@@H]2CCCN2C(=O)[C@@H](Cc2ccccc2)N(C)C(=O)[C@H](CCCN)NC(=O)[C@H]2CCCCN2C1=O [Example 40] (cyclo(I[dPip][Orn][dNMeF]P[dW]))
59
